Entries and their Ki values follow.
- System Name: human B2 bradykinin receptors (Homo sapiens, UniProt P30411)
- Construct: purchased Receptor Biology, Inc. (Baltimore, MD); host or cells: CHO-K1 cells transfected with the human B2 receptor (membranes)
- Sequence (P30411 1-391): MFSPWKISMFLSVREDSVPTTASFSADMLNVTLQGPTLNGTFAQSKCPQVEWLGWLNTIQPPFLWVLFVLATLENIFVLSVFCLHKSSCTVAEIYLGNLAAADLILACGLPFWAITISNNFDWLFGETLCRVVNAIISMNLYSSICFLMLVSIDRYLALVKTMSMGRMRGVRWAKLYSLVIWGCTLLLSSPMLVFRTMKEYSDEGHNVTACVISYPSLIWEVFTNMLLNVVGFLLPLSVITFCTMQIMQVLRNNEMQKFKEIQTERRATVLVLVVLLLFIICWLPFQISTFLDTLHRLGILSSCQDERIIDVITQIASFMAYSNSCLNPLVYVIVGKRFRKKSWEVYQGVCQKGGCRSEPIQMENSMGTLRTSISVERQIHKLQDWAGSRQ
- Assay Notes: Bradykinin B2 (BK2) Receptor Binding Assay
- Assay Setup: membranes of CHO-K1 cells transfected with human B2 bradykinin receptors; ~0.25 nM [3H]NPC17731; 60 min at 25°C
Measured Property: Ki

Structure String | System Name | Measured Property | Result
CCCCCC(=O)c1ccc(CC(=O)N(C)c2ccc(Cl)c(COc3cccc4ccc(C)nc34)c2Cl)n1C | human B2 bradykinin receptors (Homo sapiens, UniProt P30411) | Ki | 5430 nM
COc1ccc(C(=O)c2ccc(CCC(=O)N(C)c3ccc(C)c(COc4cccc5ccc(C)nc45)c3C)s2)cc1 | human B2 bradykinin receptors (Homo sapiens, UniProt P30411) | Ki | 375 nM
CCCN(C(=O)Cc1ccc(C(=O)c2ccc(C#N)cc2)n1C)c1ccc(Cl)c(COc2cccc3ccc(C)nc23)c1Cl | human B2 bradykinin receptors (Homo sapiens, UniProt P30411) | Ki | 3890 nM
Cc1ccc2cccc(OCc3c(Cl)ccc(N(C)C(=O)Cc4ccc(C(=O)c5ccc(C#N)cc5)n4CC4CC4)c3Cl)c2n1 | human B2 bradykinin receptors (Homo sapiens, UniProt P30411) | Ki | 48 nM
Cc1ccc2cccc(OCc3c(Cl)ccc(N(C)C(=O)Cc4ccc(C(=O)c5ccc(CN6CCCC6)cc5)n4C)c3Cl)c2n1 | human B2 bradykinin receptors (Homo sapiens, UniProt P30411) | Ki | 560 nM
Cc1ccc2cccc(OCc3c(Cl)ccc(N(C)C(=O)Cc4ccc(C(=O)c5ccccc5)s4)c3Cl)c2n1 | human B2 bradykinin receptors (Homo sapiens, UniProt P30411) | Ki | 53 nM
Cc1ccc2cccc(OCc3c(Cl)ccc(N(C)C(=O)Cc4ccc(C(=O)c5ccc([N+](=O)[O-])c(C)c5)n4C)c3Cl)c2n1 | human B2 bradykinin receptors (Homo sapiens, UniProt P30411) | Ki | 151 nM
Cc1ccc2cccc(OCc3c(Cl)ccc(N(C)C(=O)Cc4ccc(C(=O)c5cnc(Cl)c(Cl)c5)n4C)c3Cl)c2n1 | human B2 bradykinin receptors (Homo sapiens, UniProt P30411) | Ki | 427 nM
Cc1ccc2cccc(OCc3c(Cl)ccc(N(C)C(=O)Cc4ccc(C(=O)c5cccc([N+](=O)[O-])c5)n4C)c3Cl)c2n1 | human B2 bradykinin receptors (Homo sapiens, UniProt P30411) | Ki | 688 nM
Cc1ccc2cccc(OCc3c(Cl)ccc(N(C)C(=O)Cc4ccc(C(=O)c5ccc(C#N)nc5)n4C)c3Cl)c2n1 | human B2 bradykinin receptors (Homo sapiens, UniProt P30411) | Ki | 74 nM
CCn1c(CC(=O)N(C)c2ccc(C)c(COc3cccc4ccc(C)nc34)c2C)ccc1C(=O)c1ccc(C#N)cc1 | human B2 bradykinin receptors (Homo sapiens, UniProt P30411) | Ki | 48 nM
Cc1ccc2cccc(OCc3c(Cl)ccc(N(C)C(=O)Cc4ccc(C(=O)c5ccc6c(c5)OCO6)n4C)c3Cl)c2n1 | human B2 bradykinin receptors (Homo sapiens, UniProt P30411) | Ki | 583 nM
Cc1ccc2cccc(OCc3c(C)ccc(N(C)C(=O)Cc4ccc(C(=O)c5ccc(C#N)nc5)n4C)c3C)c2n1 | human B2 bradykinin receptors (Homo sapiens, UniProt P30411) | Ki | 286 nM
Cc1ccc2cccc(OCc3c(Cl)ccc(N(C)C(=O)Cc4ccc(C(=O)c5cccc(N)c5)n4C)c3Cl)c2n1 | human B2 bradykinin receptors (Homo sapiens, UniProt P30411) | Ki | 361 nM
CC(C)=CC(=O)c1ccc(CC(=O)N(C)c2ccc(Cl)c(COc3cccc4ccc(C)nc34)c2Cl)n1C | human B2 bradykinin receptors (Homo sapiens, UniProt P30411) | Ki | 784 nM
Cc1ccc2cccc(OCc3c(Cl)ccc(N(C)C(=O)Cc4ccc(C(=O)c5cccc6ccccc56)n4C)c3Cl)c2n1 | human B2 bradykinin receptors (Homo sapiens, UniProt P30411) | Ki | 807 nM
Cc1ccc(-c2ccc(CC(=O)N(C)c3ccc(C)c(COc4cccc5ccc(C)nc45)c3C)n2C)cc1 | human B2 bradykinin receptors (Homo sapiens, UniProt P30411) | Ki | 3610 nM
Cc1ccc2cccc(OCc3c(Cl)ccc(N(C)C(=O)Cc4ccc(C(=O)c5ccc(N(C)C)cc5)n4C)c3Cl)c2n1 | human B2 bradykinin receptors (Homo sapiens, UniProt P30411) | Ki | 428 nM
CSc1ccc(C(=O)c2ccc(CC(=O)N(C)c3ccc(Cl)c(COc4cccc5ccc(C)nc45)c3Cl)n2C)s1 | human B2 bradykinin receptors (Homo sapiens, UniProt P30411) | Ki | 680 nM
CC(=O)Nc1ccc(C(=O)c2ccc(CC(=O)N(C)c3ccc(Cl)c(COc4cccc5ccc(C)nc45)c3Cl)n2C)cc1 | human B2 bradykinin receptors (Homo sapiens, UniProt P30411) | Ki | 68 nM
COc1ccc(C(=O)c2c(C)cc(CC(=O)Nc3ccc(Cl)c(COc4cccc5ccc(C)nc45)c3Cl)n2C)cc1 | human B2 bradykinin receptors (Homo sapiens, UniProt P30411) | Ki | 1560 nM
CC(=O)Nc1ccc(C=CC(=O)NC[C@H]2CCCN2c2ccc(C)c(COc3cccc4ccc(C)nc34)c2C)cn1 | human B2 bradykinin receptors (Homo sapiens, UniProt P30411) | Ki | 54 nM
Cc1ccc2cccc(OCc3c(Cl)ccc(N(C)C(=O)Cc4ccc(C(=O)c5ccc6ccccc6c5)n4C)c3Cl)c2n1 | human B2 bradykinin receptors (Homo sapiens, UniProt P30411) | Ki | 4050 nM
Cc1ccc2cccc(OCc3c(Cl)ccc(N(C)C(=O)Cc4ccc(C(=O)c5ccc(C#N)cc5)[nH]4)c3Cl)c2n1 | human B2 bradykinin receptors (Homo sapiens, UniProt P30411) | Ki | 41 nM
CCn1c(CC(=O)N(C)c2ccc(Cl)c(COc3cccc4ccc(C)nc34)c2Cl)ccc1C(=O)c1ccc(C#N)cc1 | human B2 bradykinin receptors (Homo sapiens, UniProt P30411) | Ki | 13 nM
CCCn1c(CC(=O)N(C)c2ccc(Cl)c(COc3cccc4ccc(C)nc34)c2Cl)ccc1C(=O)c1ccc(C#N)cc1 | human B2 bradykinin receptors (Homo sapiens, UniProt P30411) | Ki | 27 nM
Cc1ccc2cccc(OCc3c(Cl)ccc(N(C)C(=O)Cc4ccc(C(=O)c5ccc(Cl)s5)n4C)c3Cl)c2n1 | human B2 bradykinin receptors (Homo sapiens, UniProt P30411) | Ki | 4180 nM
